src = ChEMBL document CHEMBL4000229

tested on: A549; assay: Cytotoxicity against Taxol-resistant human A549 cells measured after 48 hrs by MTT assay; format: functional, cell-based; conditions: A549, 48 h
Values of IC50 strictly less than 100 µM map to TRUE, and values of at least 100 µM map to FALSE.

Before answering, review these 2 worked examples.
Prompt: Strictly below 100 µM in IC50? COc1ccc(O)c2c(=O)c3cc(O)ccc3oc12
Completion: TRUE

Prompt: Determine if COc1c(O)ccc2oc3ccc(O)cc3c(=O)c12 shows IC50 strictly lower than 100 µM.
Completion: TRUE

***
Prompt: Is it true that IC50 reported for COc1cc(O)c2c(=O)c3cc(O)ccc3oc2c1 is less than 100 µM?
Completion: FALSE

Prompt: Answer whether the molecule COc1ccc2oc3ccc(O)cc3c(=O)c2c1OC has IC50 strictly less than 100 µM
Completion: FALSE

Prompt: Strictly below 100 µM: is that where IC50 of COc1c(O)cc2oc3cccc(O)c3c(=O)c2c1O sits?
Completion: FALSE

Prompt: # strict comparison: is reported IC50 < 100 µM? input = O=c1c2cc(O)ccc2oc2cc(O)cc(O)c12
Completion: FALSE

----------
We begin with a simple list: items and their reported pIC50.
tested on: NCI/ADR-RES; experiment: Cytotoxicity against human MCF7/ADR cells measured after 48 hrs by MTT assay; assay type: functional, cell-based
Scale note: pIC50 = -log10(concentration in M).

Some molecules with recorded pIC50:
Prompt: Answer with the recorded pIC50 of COc1cc(OC)c2c(=O)c3c(O)cccc3oc2c1OC only.
Completion: 4.23

Prompt: Let me know recorded pIC50 for COc1c(O)ccc2oc3ccc(O)cc3c(=O)c12 , thanks.
Completion: 3.96

Prompt: Let me know recorded pIC50 for COc1ccc2oc3ccc(O)c(OC)c3c(=O)c2c1 , thanks.
Completion: 3.99

Prompt: Please indicate pIC50 recorded for COc1cc(O)c2c(=O)c3cc(O)ccc3oc2c1
Completion: 4.50

Prompt: Return reported pIC50. Input molecule: O=c1c2cc(O)ccc2oc2cc(O)cc(O)c12
Completion: 3.72

Next:
Prompt: Write down pIC50 measured for item COc1cc(O)c2c(=O)c3cc(O)ccc3oc2c1OC
Completion: 4.24

Prompt: # return recorded pIC50 for input COc1ccc(O)c2c(=O)c3cc(O)ccc3oc12
Completion: 3.73

Prompt: State its pIC50: COc1ccc2oc3ccc(O)cc3c(=O)c2c1OC
Completion: 4.27

Prompt: Supply recorded pIC50 for COc1c(O)cc(OC)c2c(=O)c3c(O)cccc3oc12 here.
Completion: 4.52

----------
test system: A549; assay: Cytotoxicity against Taxol-resistant human A549 cells measured after 48 hrs by MTT assay; type: functional, cell-based; conditions: A549, 48 h
readout kind: IC50 (µM)
Unit µM implied. Number only.

Prompt: Using known records, supply IC50 for COc1c(O)cc(OC)c2c(=O)c3c(O)cccc3oc12
Completion: 25.6

Prompt: Please list IC50 recorded for the compound COc1cc(OC)c2c(=O)c3c(O)cccc3oc2c1OC
Completion: 34.6

Prompt: Please list IC50 recorded for the compound COc1c(O)cc2oc3ccc(O)cc3c(=O)c2c1O
Completion: 167

Prompt: # return recorded IC50 for entry COc1cc(O)c2c(=O)c3cc(O)ccc3oc2c1OC
Completion: 62.3

Next:
Prompt: Read the entry COc1ccc2oc3ccc(O)c(OC)c3c(=O)c2c1 and write its reported IC50.
Completion: 35.2
